target_system: T1, Human a7 Genu Calf 1-2 (human, UniProt Q13683 679-1078, limits assumed)
T1 construct: domain: Genu Calf 1-2
T1 sequence (looked up): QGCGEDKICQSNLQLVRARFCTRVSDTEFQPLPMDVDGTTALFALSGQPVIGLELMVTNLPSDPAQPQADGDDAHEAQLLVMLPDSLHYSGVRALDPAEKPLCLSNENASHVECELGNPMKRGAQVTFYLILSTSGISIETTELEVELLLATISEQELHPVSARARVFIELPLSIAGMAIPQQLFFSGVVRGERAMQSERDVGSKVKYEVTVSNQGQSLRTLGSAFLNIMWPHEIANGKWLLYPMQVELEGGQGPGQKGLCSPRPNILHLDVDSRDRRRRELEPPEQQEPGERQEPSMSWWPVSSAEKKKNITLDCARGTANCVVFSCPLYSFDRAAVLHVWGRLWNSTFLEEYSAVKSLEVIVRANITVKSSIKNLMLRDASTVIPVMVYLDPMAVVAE
measurement_notes: SPR
endpoint_name: pKd
Schema: pKd number; meaning minus log10 of the concentration expressed in molar units.

>>> reported_result("Ab41 (antibody, human IgG1, V domains shown) VH: EVQLVQSGAEVKKPGSSVKVSCKASGYSFTRYWMHWVRQAPGQGLEWIGKIDPSDSETRLNQEFRDRATLTVDKSTSTAYMELSSLRSEDTAVYYCARGGYFGEQWYHDVWGQGTLVTVSS VL: DIVMTQSPLSLPVTPGEPASISCRSSQSLVHRNGNTYLHWYLQKPGQSPQLLIYEVSKRFSGVPDRFSGSGSGTDFTLKISRVEAEDVGVYFCAQSIQVPWTFGGGTKLEIK")
9.15

Documented pKd of Ab30 (antibody, human IgG1, V domains shown) VH: EVQLVQSGAEVKKPGSSVKVSCKASGYSFTRYWMHWVRQAPGQGLEWIGKIDPSDSETRLNQEFRDRATLTVDKSTSTAYMELSSLRSEDTAVYYCARGGYFGEGWYHDVWGQGTLVTVSS VL: DIVMTQSPLSLPVTPGEPASISCRSSQSLVHRNGNTYLHWYLQKPGQSPQLLIYEVSKRASGVPDRFSGSGSGTDFTLKISRVEAEDVGVYFCAQSIQVPWTFGGGTKLEIK : 9.24

Documented pKd of Ab34 (antibody, human IgG1, V domains shown) VH: EVQLVQSGAEVKKPGSSVKVSCKASGYSFTRYWMHWVRQAPGQGLEWIGKIDPSDSETRLNQEFRDRATLTVDKSTSTAYMELSSLRSEDTAVYYCARGGYFGETWYHDVWGQGTLVTVSS VL: DIVMTQSPLSLPVTPGEPASISCRSSQSLVHRNGNTYLHWYLQKPGQSPQLLIYEVSHRASGVPDRFSGSGSGTDFTLKISRVEAEDVGVYFCSQSTHVPWTFGGGTKLEIK : 8.87

Documented pKd of Ab33 (antibody, human IgG1, V domains shown) VH: EVQLVQSGAEVKKPGSSVKVSCKASGYSFTRYWMHWVRQAPGQGLEWIGKIDPSDSETRLNQEFRDRATLTVDKSTSTAYMELSSLRSEDTAVYYCARGGYFGVGWYNDVWGQGTLVTVSS VL: DIVMTQSPLSLPVTPGEPASISCRSSQSLVHRNGNTYLHWYLQKPGQSPQLLIYEVSNRVPGVPDRFSGSGSGTDFTLKISRVEAEDVGVYFCSQSTHVPWTFGGGTKLEIK : 8.54

Documented pKd of AB-P (antibody, V domains shown) VH: QVQLVQSGAEVKKPGSSVKVSCKASGYSFTRYWMHWVRQAPGQGLEWIGKIDPSDSETRLNQEFRDRATLTVDKSTSTAYMELSSLRSEDTAVYYCARGGYFGEGWYFDVWGQGTLVTVSS VL: DVVMTQSPLSLPVTPGEPASISCRSSQSLVHRNGNTYLHWYLQKPGQSPQLLIYKVSNRFSGVPDRFSGSGSGTDFTLKISRVEAEDVGVYFCSQSTHVPWTFGGGTKLEIK : 7.79

Documented pKd of Ab36 (antibody, human IgG1, V domains shown) VH: EVQLVQSGAEVKKPGSSVKVSCKASGYSFTRYWMHWVRQAPGQGLEWIGKIDPSDSETRLNQEFRDRATLTVDKSTSTAYMELSSLRSEDTAVYYCARGGYFGEKWYHDVWGQGTLVTVSS VL: DIVMTQSPLSLPVTPGEPASISCRSSQSLVHRNGNTYLHWYLQKPGQSPQLLIYEVSHRFPGVPDRFSGSGSGTDFTLKISRVEAEDVGVYFCAQSTQLPYTFGGGTKLEIK : 8.88

Documented pKd of Ab37 (antibody, human IgG1, V domains shown) VH: EVQLVQSGAEVKKPGSSVKVSCKASGYSFTRYWMHWVRQAPGQGLEWIGKIDPSDSETRLNQEFRDRATLTVDKSTSTAYMELSSLRSEDTAVYYCARGGYFGEKWYHDVWGQGTLVTVSS VL: DIVMTQSPLSLPVTPGEPASISCRSSQSLVHRNGNTYLHWYLQKPGQSPQLLIYGVSNRFAGVPDRFSGSGSGTDFTLKISRVEAEDVGVYFCAQSTQLPYTFGGGTKLEIK : 8.84

Documented pKd of Ab31 (antibody, human IgG1, V domains shown) VH: EVQLVQSGAEVKKPGSSVKVSCKASGYSFTRYWMHWVRQAPGQGLEWIGKIDPSDSETRLNQEFRDRATLTVDKSTSTAYMELSSLRSEDTAVYYCARGGYFGRQWYFDVWGQGTLVTVSS VL: DIVMTQSPLSLPVTPGEPASISCRSSQSLVHRNGNTYLHWYLQKPGQSPQLLIYEVSNRASGVPDRFSGSGSGTDFTLKISRVEAEDVGVYFCSQSTHVPWTFGGGTKLEIK : 8.60

Documented pKd of Ab32 (antibody, human IgG1, V domains shown) VH: EVQLVQSGAEVKKPGSSVKVSCKASGYSFTRYWMHWVRQAPGQGLEWIGKIDPSDSETRLNQEFRDRATLTVDKSTSTAYMELSSLRSEDTAVYYCARGGYFGEQWYHDVWGQGTLVTVSS VL: DIVMTQSPLSLPVTPGEPASISCRSSQSLVHRNGNTYLHWYLQKPGQSPQLLIYEVSNRASGVPDRFSGSGSGTDFTLKISRVEAEDVGVYFCSQSTHVPWTFGGGTKLEIK : 8.82

Documented pKd of Ab38 (antibody, human IgG1, V domains shown) VH: EVQLVQSGAEVKKPGSSVKVSCKASGYSFTRYWMHWVRQAPGQGLEWIGKIDPSDSETRLNQEFRDRATLTVDKSTSTAYMELSSLRSEDTAVYYCARGGYFGEEWYNDVWGQGTLVTVSS VL: DIVMTQSPLSLPVTPGEPASISCRSSQSLVHRNGNTYLHWYLQKPGQSPQLLIYKVSNRASGVPDRFSGSGSGTDFTLKISRVEAEDVGVYFCSQSTHVPWTFGGGTKLEIK : 8.35
